Test system: PBMC
Test: Ratio of intracellular drug level to extracellular drug level in human PBMC at 20 ug/ml after 24 hrs
Format: ADME, cell-based

[
  {
    "MOLECULE": "COC(=O)N[C@H](C(=O)N[C@@H](Cc1ccccc1)[C@@H](O)CN(Cc1ccc(-c2ccccn2)cc1)NC(=O)[C@@H](NC(=O)OC)C(C)(C)C)C(C)(C)C [ATAZANAVIR]",
    "Ratio": 0.602
  }
]

###

Tested on: PBMC
Experiment: Ratio of intracellular drug level to extracellular drug level in human PBMC at 0.2 ug/ml after 24 hrs
Assay type: ADME, cell-based
ASSAY_READOUT: Ratio

[
  {
    "MOLECULE": "COC(=O)N[C@H](C(=O)N[C@@H](Cc1ccccc1)[C@@H](O)CN(Cc1ccc(-c2ccccn2)cc1)NC(=O)[C@@H](NC(=O)OC)C(C)(C)C)C(C)(C)C [ATAZANAVIR]",
    "ASSAY_READOUT": "Ratio",
    "RESULT_VALUE": 19.2
  }
]

###

Tested on: PBMC
Test: Ratio of intracellular drug level to extracellular drug level in human PBMC at 2 ug/ml after 24 hrs
Format: ADME, cell-based

[
  {
    "CPD_SMILES": "COC(=O)N[C@H](C(=O)N[C@@H](Cc1ccccc1)[C@@H](O)CN(Cc1ccc(-c2ccccn2)cc1)NC(=O)[C@@H](NC(=O)OC)C(C)(C)C)C(C)(C)C",
    "Ratio": 2.7
  }
]

###

Experiment: Ratio of intracellular drug level to extracellular drug level in CEM CCL19 cells at 2 ug/ml after 24 hrs
Assay type: ADME, cell-based
Conditions: human, ccrf-cem
ASSAY_READOUT: Ratio

[
  {
    "CPD_SMILES": "COC(=O)N[C@H](C(=O)N[C@@H](Cc1ccccc1)[C@@H](O)CN(Cc1ccc(-c2ccccn2)cc1)NC(=O)[C@@H](NC(=O)OC)C(C)(C)C)C(C)(C)C",
    "RESULT_VALUE": 0.1
  }
]

###

Test: Ratio of intracellular drug level to extracellular drug level in CEM CCL19 cells at 0.2 ug/ml after 24 hrs
Type: ADME, cell-based
Conditions: human, ccrf-cem

[
  {
    "CPD_SMILES": "COC(=O)N[C@H](C(=O)N[C@@H](Cc1ccccc1)[C@@H](O)CN(Cc1ccc(-c2ccccn2)cc1)NC(=O)[C@@H](NC(=O)OC)C(C)(C)C)C(C)(C)C",
    "Ratio": 0.44
  }
]

All figures here come from ChEMBL document CHEMBL1142181.
